Attribution: patent US20140274782A1

target.or.test.system: T1, G9a and GLP (Homo sapiens, UniProt Q96KQ7+Q9H9B1)
T1 sequence (Q96KQ7 2-1210 limits assumed): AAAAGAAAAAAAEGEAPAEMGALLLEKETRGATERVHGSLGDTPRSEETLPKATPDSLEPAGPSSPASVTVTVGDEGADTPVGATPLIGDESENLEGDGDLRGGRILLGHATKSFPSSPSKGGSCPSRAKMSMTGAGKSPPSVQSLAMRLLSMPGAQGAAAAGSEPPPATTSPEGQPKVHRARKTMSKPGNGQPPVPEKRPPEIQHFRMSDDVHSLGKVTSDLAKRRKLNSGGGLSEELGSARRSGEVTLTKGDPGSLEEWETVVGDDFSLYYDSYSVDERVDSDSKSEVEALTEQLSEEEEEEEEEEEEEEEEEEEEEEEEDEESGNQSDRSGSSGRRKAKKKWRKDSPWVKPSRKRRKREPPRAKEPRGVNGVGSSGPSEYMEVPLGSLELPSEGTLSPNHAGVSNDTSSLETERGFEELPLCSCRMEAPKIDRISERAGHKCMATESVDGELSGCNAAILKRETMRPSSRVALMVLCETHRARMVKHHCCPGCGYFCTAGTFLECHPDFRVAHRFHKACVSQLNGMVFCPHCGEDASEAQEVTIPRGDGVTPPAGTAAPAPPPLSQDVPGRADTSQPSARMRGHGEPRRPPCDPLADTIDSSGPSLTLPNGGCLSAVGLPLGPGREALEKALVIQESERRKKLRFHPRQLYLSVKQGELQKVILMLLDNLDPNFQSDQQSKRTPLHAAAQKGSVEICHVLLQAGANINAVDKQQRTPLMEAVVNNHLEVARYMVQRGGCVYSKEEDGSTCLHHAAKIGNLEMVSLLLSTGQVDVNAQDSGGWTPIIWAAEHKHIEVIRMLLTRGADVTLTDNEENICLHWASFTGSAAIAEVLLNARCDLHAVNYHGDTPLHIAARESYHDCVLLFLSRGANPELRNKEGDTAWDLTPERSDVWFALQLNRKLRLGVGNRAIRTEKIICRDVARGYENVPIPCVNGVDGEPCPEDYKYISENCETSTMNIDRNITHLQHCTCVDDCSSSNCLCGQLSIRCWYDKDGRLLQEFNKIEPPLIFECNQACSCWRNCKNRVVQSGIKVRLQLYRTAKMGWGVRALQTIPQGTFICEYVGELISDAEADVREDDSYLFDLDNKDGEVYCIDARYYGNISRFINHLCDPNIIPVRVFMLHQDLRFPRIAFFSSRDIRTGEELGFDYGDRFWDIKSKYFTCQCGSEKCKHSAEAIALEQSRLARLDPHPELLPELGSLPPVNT
T1 sequence (Q9H9B1 2-1298 limits assumed): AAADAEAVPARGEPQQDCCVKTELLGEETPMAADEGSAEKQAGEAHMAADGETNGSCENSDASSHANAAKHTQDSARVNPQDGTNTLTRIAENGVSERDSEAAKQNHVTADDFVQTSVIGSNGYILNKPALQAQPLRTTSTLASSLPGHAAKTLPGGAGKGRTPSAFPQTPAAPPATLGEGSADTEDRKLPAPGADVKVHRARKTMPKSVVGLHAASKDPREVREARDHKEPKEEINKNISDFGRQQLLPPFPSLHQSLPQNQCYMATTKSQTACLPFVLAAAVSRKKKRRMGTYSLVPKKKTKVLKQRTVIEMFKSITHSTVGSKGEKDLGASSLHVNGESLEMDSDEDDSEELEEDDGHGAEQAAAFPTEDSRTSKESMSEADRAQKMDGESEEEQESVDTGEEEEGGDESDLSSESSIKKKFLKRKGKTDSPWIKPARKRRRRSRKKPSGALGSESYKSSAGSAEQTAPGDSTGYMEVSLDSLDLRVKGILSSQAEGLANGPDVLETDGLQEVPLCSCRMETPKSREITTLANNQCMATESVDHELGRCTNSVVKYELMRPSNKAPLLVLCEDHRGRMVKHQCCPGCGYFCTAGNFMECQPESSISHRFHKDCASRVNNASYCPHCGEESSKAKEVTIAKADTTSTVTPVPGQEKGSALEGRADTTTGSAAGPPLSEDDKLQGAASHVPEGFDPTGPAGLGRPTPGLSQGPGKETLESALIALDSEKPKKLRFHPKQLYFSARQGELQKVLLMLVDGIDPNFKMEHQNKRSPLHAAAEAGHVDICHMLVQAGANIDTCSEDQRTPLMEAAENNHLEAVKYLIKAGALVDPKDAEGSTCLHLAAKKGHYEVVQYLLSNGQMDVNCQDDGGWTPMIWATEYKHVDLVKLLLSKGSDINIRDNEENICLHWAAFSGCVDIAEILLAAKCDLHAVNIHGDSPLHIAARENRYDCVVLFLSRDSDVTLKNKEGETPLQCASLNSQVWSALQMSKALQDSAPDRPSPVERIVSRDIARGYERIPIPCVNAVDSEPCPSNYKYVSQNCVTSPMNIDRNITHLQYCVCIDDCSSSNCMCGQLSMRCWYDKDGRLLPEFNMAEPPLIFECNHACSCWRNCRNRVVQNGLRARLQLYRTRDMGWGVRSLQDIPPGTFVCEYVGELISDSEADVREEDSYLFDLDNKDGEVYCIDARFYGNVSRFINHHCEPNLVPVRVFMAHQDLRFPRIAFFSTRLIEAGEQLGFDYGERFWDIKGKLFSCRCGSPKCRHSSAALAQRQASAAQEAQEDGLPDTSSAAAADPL
assay.method.text: Triple SILAC pull-down after UNC0638 treatment of 293T cells, DMSO/UNC0638 ratio of protein captured by 3×MBT;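 further: mass spectrometry (Q-Exactive) SILAC quantitation, DMSO/UNC0638 ratio computed after subtracting 3×MBTD355N mutant pull-down background, only proteins with at least twofold 3×MBT over mutant signal considered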
Format: cell-based
Design: cells were treated for 24 hours with UNC0638 at 2.5 μM or DMSO vehicle control; endogenous in cells; host or cells: HEK 293T
condition.details: SILAC ratio DMSO/UNC0638 of protein pulled down with 3xMBT; UNC0638 in light SILAC media
Measured Relative to UNC0638 UNC Light of individual entries
Record the value in log base 2, omitting the unit from your answer.

molecule	Relative to UNC0638 UNC Light [log base 2]
C14orf166 (protein, UniProt Q9Y224 1-244, looked up) RNA transcription, …: MFRRKLTALDYHNPAGFNCKDETEFRNFIVWLEDQKIRHYKIEDRGNLRNIHSSDWPKFFEKYLRDVNCPFKIQDRQEAIDWLLGLAVRLEYGDNAEKYKDLVPDNSKTADNATKNAEPLINLDVNNPDFKAGVMALANLLQIQRHDDYLVMLKAIRILVQERLTQDAVAKANQTKEGLPVALDKHILGFDTGDAVLNEAAQILRLLHIEELRELQTKINEAIVAVQAIIADPKTDHRLGKVGR	0.24
PCBP2 (protein, UniProt Q15366 1-365, looked up) Poly(rC)-binding protein 2: MDTGVIEGGLNVTLTIRLLMHGKEVGSIIGKKGESVKKMREESGARINISEGNCPERIITLAGPTNAIFKAFAMIIDKLEEDISSSMTNSTAASRPPVTLRLVVPASQCGSLIGKGGCKIKEIRESTGAQVQVAGDMLPNSTERAITIAGIPQSIIECVKQICVVMLETLSQSPPKGVTIPYRPKPSSSPVIFAGGQDRYSTGSDSASFPHTTPSMCLNPDLEGPPLEAYTIQGQYAIPQPDLTKLHQLAMQQSHFPMTHGNTGFSGIESSSPEVKGYWGLDASAQTTSHELTIPNDLIGCIIGRQGAKINEIRQMSGAQIKIANPVEGSTDRQVTITGSAASISLAQYLINVRLSSETGGMGSS	0.21
TRMT61A (protein, UniProt Q96FX7 2-289, looked up) tRNA …: SFVAYEELIKEGDTAILSLGHGAMVAVRVQRGAQTQTRHGVLRHSVDLIGRPFGSKVTCGRGGWVYVLHPTPELWTLNLPHRTQILYSTDIALITMMLELRPGSVVCESGTGSGSVSHAIIRTIAPTGHLHTVEFHQQRAEKAREEFQEHRVGRWVTVRTQDVCRSGFGVSHVADAVFLDIPSPWEAVGHAWDALKVEGGRFCSFSPCIEQVQRTCQALAARGFSELSTLEVLPQVYNVRTVSLPPPDLGTGTDGPAGSDTSPFRSGTPMKEAVGHTGYLTFATKTPG	0.29
PDCD2L (protein, UniProt Q9BRP1 2-358, looked up) Programmed cell death protein …: AAVLKPVLLGLRDAPVHGSPTGPGAWTASKLGGIPDALPTVAAPRPVCQRCGQPLALVVQVYCPLEGSPFHRLLHVFACACPGCSTGGARSWKVFRSQCLQVPEREAQDAQKQGNSLAAEDWCEGADDWGSDTEEGPSPQFTLDFGNDASSAKDVDWTARLQDLRLQDAVLGAAHPVPPGLPLFLPYYICVADEDDYRDFVNLDHAHSLLRDYQQREGIAMDQLLSQSLPNDGDEKYEKTIIKSGDQTFYKFMKRIAACQEQILRYSWSGEPLFLTCPTSEVTELPACSQCGGQRIFEFQLMPALVSMLKSANLGLSVEFGTILVYTCEKSCWPPNHQTPMEEFCIIQEDPDELLFK	0.28
NUDT16L1 (protein, UniProt Q9BRJ7 1-211, looked up) Tudor-interacting repair …: MSTAAVPELKQISRVEAMRLGPGWSHSCHAMLYAANPGQLFGRIPMRFSVLMQMRFDGLLGFPGGFVDRRFWSLEDGLNRVLGLGLGCLRLTEADYLSSHLTEGPHRVVAHLYARQLTLEQLHAVEISAVHSRDHGLEVLGLVRVPLYTQKDRVGGFPNFLSNAFVSTAKCQLLFALKVLNMMPEEKLVEALAAATEKQKKALEKLLPASS	0.28

Input line: Return the recorded Relative to UNC0638 UNC Light value; entry: PRDX6 (protein, UniProt P30041 2-224, looked up) Peroxiredoxin-6: PGGLLLGDVAPNFEANTTVGRIRFHDFLGDSWGILFSHPRDFTPVCTTELGRAAKLAPEFAKRNVKLIALSIDSVEDHLAWSKDINAYNCEEPTEKLPFPIIDDRNRELAILLGMLDPAEKDEKGMPVTARVVFVFGPDKKLKLSILYPATTGRNFDEILRVVISLQLTAEKRVATPVDWKDGDSVMVLPTIPEEEAKKLFPKGVFTKELPSGKKYLRYTPQP
Output line: 0.23

Input line: Return the recorded Relative to UNC0638 UNC Light value; entry: LSM12 (protein, UniProt Q3MHD2 2-195, looked up) Protein LSM12: AAPPGEYFSVGSQVSCRTCQEQRLQGEVVAFDYQSKMLALKCPSSSGKPNHADILLINLQYVSEVEIINDRTETPPPLASLNVSKLASKARTEKEEKLSQAYAISAGVSLEGQQLFQTIHKTIKDCKWQEKNIVVMEEVVITPPYQVENCKGKEGSALSHVRKIVEKHFRDVESQKILQRSQAQQPQKEAALSS
Output line: 0.34

Input line: Return the recorded Relative to UNC0638 UNC Light value; entry: PRDX2 (protein, UniProt P32119 2-198, looked up) Peroxiredoxin-2: ASGNARIGKPAPDFKATAVVDGAFKEVKLSDYKGKYVVLFFYPLDFTFVCPTEIIAFSNRAEDFRKLGCEVLGVSVDSQFTHLAWINTPRKEGGLGPLNIPLLADVTRRLSEDYGVLKTDEGIAYRGLFIIDGKGVLRQITVNDLPVGRSVDEALRLVQAFQYTDEHGEVCPAGWKPGSDTIKPNVDDSKEYFSKHN
Output line: 1.96

Input line: Return the recorded Relative to UNC0638 UNC Light value; entry: PABPN1 (protein, UniProt Q86U42 2-306, looked up) Polyadenylate-binding protein …: AAAAAAAAAAGAAGGRGSGPGRRRHLVPGAGGEAGEGAPGGAGDYGNGLESEELEPEELLLEPEPEPEPEEEPPRPRAPPGAPGPGPGSGAPGSQEEEEEPGLVEGDPGDGAIEDPELEAIKARVREMEEEAEKLKELQNEVEKQMNMSPPPGNAGPVIMSIEEKMEADARSIYVGNVDYGATAEELEAHFHGCGSVNRVTILCDKFSGHPKGFAYIEFSDKESVRTSLALDESLFRGRQIKVIPKRTNRPGISTTDRGFPRARYRARTTNYNSSRSRFYSGFNSRPRGRVYRGRARATSWYSPY
Output line: 0.04

Input line: Return the recorded Relative to UNC0638 UNC Light value; entry: HNRNPA2B1 (protein, UniProt P22626 1-353, looked up) Heterogeneous nuclear …: MEKTLETVPLERKKREKEQFRKLFIGGLSFETTEESLRNYYEQWGKLTDCVVMRDPASKRSRGFGFVTFSSMAEVDAAMAARPHSIDGRVVEPKRAVAREESGKPGAHVTVKKLFVGGIKEDTEEHHLRDYFEEYGKIDTIEIITDRQSGKKRGFGFVTFDDHDPVDKIVLQKYHTINGHNAEVRKALSRQEMQEVQSSRSGRGGNFGFGDSRGGGGNFGPGPGSNFRGGSDGYGSGRGFGDGYNGYGGGPGGGNFGGSPGYGGGRGGYGGGGPGYGNQGGGYGGGYDNYGGGNYGSGNYNDFGNYNQQPSNYGPMKSGNFGGSRNMGGPYGGGNYGPGGSGGSGGYGGRSRY
Output line: 0.28
